molecular target: Carbonic anhydrase 2 (Homo sapiens); assay: compounds binding carbonic anhydrase 2 – biochemical, small-molecule microarray, Alexa647-labelled CAII, profiling panel (AID 1122); conditions: CAII-A647 binding fluorescence, higher = more signal
In this scheme, each record receives a class according to its composite z-score; the ranges are band A: < 0.5; band B: ≥ 0.5 and < 0.7; band C: ≥ 0.7

{"Compound": "Cc1ccc(S[C@]2(C(=O)NCC(C)C)CC(=O)N(Cc3cc(C(F)(F)F)cc(C(F)(F)F)c3)[C@@H]2c2ccc(CO)cc2)cc1", "Category": "band C"}
{"Compound": "CCCCCCc1nc(-c2ccc(-c3ccc(Cl)c(Cl)c3)o2)c(C)c2c1[Si](C(C)C)(C(C)C)OC2", "Category": "band A"}
{"Compound": "C=C[C@H](C)[C@@H](OC(=O)Nc1ccc(SC)cc1)c1ccc(O)c2ccccc12", "Category": "band B"}
{"Compound": "[N-]=[N+]=Nc1ccccc1C[C@@]1(C(=O)N2CCCCC2)N=C(c2ccc(OCCCO)cc2)O[C@@H]1c1ccccc1", "Category": "band A"}
{"Compound": "CCOC(=O)C1=CC[C@@H](c2ccc(C(F)(F)F)cc2)N(S(=O)(=O)c2ccc(C)cc2)[C@H]1c1ccccc1", "Category": "band B"}
{"Compound": "CC(C)=CCCC(C)=CC(O)C1C=CC2C(=O)N(c3ccccc3)C(=O)C2N1Nc1ccc(C(C)C)cc1 (centres undefined)", "Category": "band A"}
{"Compound": "O=C1NC(=O)C2C1C=CC(C(O)C=Cc1ccc([N+](=O)[O-])cc1)N2Nc1ccc(Cl)cc1Cl (centres undefined)", "Category": "band C"}
{"Compound": "O=C1C2C=CC(C(O)COCc3ccccc3)N(Nc3ccc([N+](=O)[O-])cc3)C2C(=O)N1c1ccccc1 (centres undefined)", "Category": "band C"}
{"Compound": "COCCOC(=O)N1C(=O)[C@@]2(c3cc(C#CCCO)ccc31)[C@H](c1ccc(O)cc1)N1[C@H](c3ccccc3)[C@H](c3ccccc3)OC(=O)[C@H]1[C@@H]2C(=O)N1CCN(c2ncccn2)CC1", "Category": "band A"}
{"Compound": "NC(=O)N1C(=O)C2C(C1=O)C1C=C(CCCO)C2C(C2CC2)N1Cc1cc2c(cc1Br)OCO2 (centres undefined)", "Category": "band C"}
{"Compound": "CC=CC(O)C1C=CC2C(=O)N(C)C(=O)C2N1N(c1ccccc1)c1ccccc1 (centres undefined)", "Category": "band C"}
{"Compound": "CC(C)[C@@H](C(=O)O)n1cc(C2(O)CCCCC2)nn1", "Category": "band A"}
{"Compound": "COc1ccc([Si](C)(C)[C@@H]2[C@@H](CC(=O)N3CCC[C@H]3CO)O[C@]3(C(=O)N(Cc4cccc(I)c4)c4ccccc43)[C@H]2C)cc1", "Category": "band B"}
{"Compound": "CCOC(=O)C[C@H]1[C@H](OC(=O)c2ccc(-c3ccccc3)cc2)[C@@H](NC(=O)c2ccccc2)c2cc(OCCCO)ccc2N1C(=O)c1ccc2ccccc2n1", "Category": "band A"}
{"Compound": "O=C1OCC=C[C@H]2OC34C=CCN(CCN5CCOCC5)C(=O)[C@H]3N(CCO)C(=O)[C@@H]4[C@@H]12 (some centres undefined)", "Category": "band C"}
{"Compound": "COC(=O)[C@H](Cc1ccccc1)N[C@H](/C=C/C1CC1)[C@@H](O)Cc1ccccc1", "Category": "band A"}
{"Compound": "O=C1[C@@]23C=C(Br)[C@H](C[C@@H]2COC3)[C@]12CO2", "Category": "band A"}
{"Compound": "COCC(=C=CC[C@H](O)c1ccccc1OCCO)CCO", "Category": "band C"}
{"Compound": "[N-]=[N+]=Nc1ccccc1C[C@]1(C(=O)NCC(O)CO)N=C(c2ccc(OCCCO)cc2)O[C@H]1c1ccccc1 (some centres undefined)", "Category": "band B"}

---

target: Dickkopf-related protein 1 (Homo sapiens) (UniProt O94907); assay: small molecules binding DKK1 protein – biochemical, small-molecule microarray, 635 nm fluorescence scan, primary screen (AID 1106); conditions: higher = more signal;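 also: score merges emission near 667 nm with signal to noise over three replicate slides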
Sequence (O94907 whole entry, looked up): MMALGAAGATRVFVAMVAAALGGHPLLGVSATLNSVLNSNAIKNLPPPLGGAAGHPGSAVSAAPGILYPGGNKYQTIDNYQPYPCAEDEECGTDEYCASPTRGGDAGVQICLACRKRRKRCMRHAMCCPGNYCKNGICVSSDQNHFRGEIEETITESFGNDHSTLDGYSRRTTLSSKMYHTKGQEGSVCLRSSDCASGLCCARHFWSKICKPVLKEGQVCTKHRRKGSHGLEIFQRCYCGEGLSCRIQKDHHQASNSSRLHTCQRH
compounds and their reported composite z-score

{"Compound": "C=CC[C@@]1(C(=O)N2CCCCC2)N=C(c2ccc(OCCCO)cc2)O[C@@H]1c1ccccc1N=[N+]=[N-]", "composite z-score": -0.0197}
{"Compound": "COc1ccc([Si](C)(C)[C@H]2[C@H](CCO)O[C@@]3(C(=O)N(Cc4ccccc4)c4ccc(N5CCCCC5=O)cc43)[C@@H]2C)cc1", "composite z-score": -0.0075}
{"Compound": "COc1cc(CO)cc(I)c1O[C@H]1C=C(C(=O)NCCO)C[C@@H](N(C(=O)c2cc3ccccc3oc2=O)C2CCCCCC2)[C@@H]1O", "composite z-score": 0.306}
{"Compound": "O=C1O[C@H](c2ccccc2)[C@H](c2ccccc2)N2[C@H]1[C@@H](C(=O)NC[C@H](O)c1ccccc1)[C@]1(C(=O)Nc3ccc(C#CC4=CCCCC4)cc31)[C@H]2c1ccccc1OCCO", "composite z-score": 0.359}
{"Compound": "CN(C)CCCCNC(=O)[C@@H]1C[C@@H]2C(=O)N[C@@H](CCCCN)C(=O)N2[C@@H]1c1ccc(O)cc1", "composite z-score": 1.26}
{"Compound": "C=C(/C(=C/C[C@H](OC(=O)c1ccncc1)c1ccc(OCCO)cc1)c1cc(C(=O)OC)ccc1OC)C(C)C", "composite z-score": 0.178}
{"Compound": "COCC(=C=CC[C@H](O)c1cccc(OCCO)c1)C[C@H](O)c1cc(Cl)cc(Cl)c1O", "composite z-score": 0.551}
{"Compound": "[N-]=[N+]=NCc1ccccc1C[C@@]1(C(=O)NCC(O)CO)N=C(c2ccc(OCCCO)cc2)O[C@@H]1c1ccccc1 (some centres not stated)", "composite z-score": -1.58}
{"Compound": "COC(=O)[C@@]1(Cc2ccccc2)[C@H]2c3cc(C(=O)N(C)C)n(Cc4ccc(OC)c(OC)c4)c3C[C@H]2CN1C(=O)c1ccccc1", "composite z-score": -0.833}
{"Compound": "CC(C)CNC(=O)[C@@]1(Cc2ccccc2I)c2ccccc2C(=O)N(Cc2ccccc2C(F)(F)F)[C@H]1c1ccc(CO)cc1", "composite z-score": -0.822}
{"Compound": "O=C(NCCN1CCOCC1)[C@@H]1c2ccccc2C(=O)N(Cc2cc(C(F)(F)F)cc(C(F)(F)F)c2)[C@H]1c1ccc(CO)cc1", "composite z-score": -1.23}
{"Compound": "C=CC[C@]1(C(N)=O)COC(c2ccc(OCCCO)cc2)=N1", "composite z-score": -0.314}
{"Compound": "CN(C)CCCCCCNC(=O)[C@@H]1C[C@@H]2C(=O)N3CCC[C@H]3C(=O)N2[C@@H]1c1ccc(O)cc1", "composite z-score": 1.69}
{"Compound": "COc1cc(CO)cc(I)c1O[C@H]1C=C(C(=O)NCCO)C[C@@H](NC[C@@H]2CCCO2)[C@@H]1O", "composite z-score": 0.17}
{"Compound": "CN(C)CCCC[C@@H]1NC(=O)[C@H]2C[C@@H](C(=O)NCCCCCN)[C@@H](c3cccc(OCCO)c3)N2C1=O", "composite z-score": 0.453}
{"Compound": "COc1ccc([C@H]2OC[C@@H]3CCC(=O)N32)cc1", "composite z-score": 0.294}
{"Compound": "CC1CC/C=C\\[C@H]2OC34C=CCN(Cc5ccccc5)C(=O)[C@H]3N(C(C)CO)C(=O)[C@@H]4C2C(=O)O1 (some centres not stated)", "composite z-score": 0.33}
{"Compound": "CC(C)=CCCC(C)=CC(O)C1C=CC2C(=O)N(c3ccccc3)C(=O)C2N1Nc1ccc(C(C)C)cc1 (configuration not stated)", "composite z-score": -0.609}
{"Compound": "CC[C@@H]1C=C(C(=O)O)[C@H](c2cccc3ccccc23)N1S(=O)(=O)c1ccc(C)cc1", "composite z-score": 0.153}
{"Compound": "O[C@@H](Cc1ccccc1)[C@@H](/C=C/C1CC1)NCc1cccc(Cl)c1", "composite z-score": -1.61}
{"Compound": "Cc1c(NC(=O)/C(C#N)=C/c2cccc([N+](=O)[O-])c2)c(=O)n(-c2ccccc2)n1C", "composite z-score": 0.561}
{"Compound": "COCCCNC(=O)[C@@H]1c2ccccc2C(=O)N(Cc2ccccc2)[C@H]1c1ccc(CO)cc1", "composite z-score": 0.549}
{"Compound": "O=C1N(CCS(=O)(=O)c2ccccc2)c2ccccc2[C@@H]2OC(c3ccc(OCCCO)cc3)=N[C@]12Cc1ccccc1", "composite z-score": 0.432}
{"Compound": "COC(=O)[C@@]1(Cc2ccc(OC)cc2)[C@H]2c3cc(C(=O)N(C)C)n(Cc4ccc(C(F)(F)F)nc4)c3C[C@H]2CN1C(=O)c1ccccc1", "composite z-score": -0.557}
{"Compound": "COc1ccccc1CN1C(=O)c2ccccc2[C@@]2(Cc3ccccc3N(CCCN(C)C)C2=O)[C@@H]1c1ccc(CO)cc1", "composite z-score": 1.05}
{"Compound": "CC(C)N1CC=CC23O[C@@H]4C=CCOC(=O)[C@@H]4[C@H]2C(=O)N(CCCCCO)[C@@H]3C1=O (some centres not stated)", "composite z-score": -0.758}
{"Compound": "CC(=O)NCCCC[C@@H]1NC(=O)[C@H]2C[C@@H](C(=O)O)[C@@H](c3ccc(O)cc3)N2C1=O", "composite z-score": 1.28}

All values here come from PubChem BioAssay.
